target.entity: human recombinant full-length fatty acid synthase (FASN) (Homo sapiens)
Construct: human recombinant full-length fatty acid synthase
protocol.summary: Biochemical activity testing of human fatty acid synthase FASN (NADPH fluorescence intensity assay)
applied.conditions: NADPH fluorescence decrease (ex 340 nm / em 460 nm), 30 minutes at room temperature, read-out: IC50 FASN (enzyme assay)
pIC50: −log10 of the molar value.
readout: pIC50

- compound.smiles: "CCNC(=O)[C@H]1CC[C@@H](N(C)C(=O)c2ccc(-c3ccncc3)cc2F)C1"
  endpoint.result: "> 6.52"
- compound.smiles: "CCNC(=O)[C@H]1CC[C@@H](N(C)C(=O)c2ccc(-c3ccc(C)cc3)cc2)C1"
  endpoint.result: "> 6.52"
- compound.smiles: "COc1cc(-c2nc3ccccc3o2)ccc1C(=O)N(C)[C@@H]1CC[C@H](C(=O)NC2(C)CC2)C1"
  endpoint.result: "5.52 to 6.52"

Please examine the following record next.
**Query** For human recombinant full-length fatty acid synthase (FASN) (Homo sapiens), provide pIC50 of CCNC(=O)[C@@H]1CC[C@@H](N(C)C(=O)c2ccc(-c3nc4ccccc4o3)cc2)C1 please.
**Result** > 6.52

###

Measured IC50 of individual entries
target.entity: human recombinant full-length fatty acid synthase (FASN) (Homo sapiens, UniProt P49327)
Construct: human recombinant full-length fatty acid synthase
Sequence (P49327 whole entry): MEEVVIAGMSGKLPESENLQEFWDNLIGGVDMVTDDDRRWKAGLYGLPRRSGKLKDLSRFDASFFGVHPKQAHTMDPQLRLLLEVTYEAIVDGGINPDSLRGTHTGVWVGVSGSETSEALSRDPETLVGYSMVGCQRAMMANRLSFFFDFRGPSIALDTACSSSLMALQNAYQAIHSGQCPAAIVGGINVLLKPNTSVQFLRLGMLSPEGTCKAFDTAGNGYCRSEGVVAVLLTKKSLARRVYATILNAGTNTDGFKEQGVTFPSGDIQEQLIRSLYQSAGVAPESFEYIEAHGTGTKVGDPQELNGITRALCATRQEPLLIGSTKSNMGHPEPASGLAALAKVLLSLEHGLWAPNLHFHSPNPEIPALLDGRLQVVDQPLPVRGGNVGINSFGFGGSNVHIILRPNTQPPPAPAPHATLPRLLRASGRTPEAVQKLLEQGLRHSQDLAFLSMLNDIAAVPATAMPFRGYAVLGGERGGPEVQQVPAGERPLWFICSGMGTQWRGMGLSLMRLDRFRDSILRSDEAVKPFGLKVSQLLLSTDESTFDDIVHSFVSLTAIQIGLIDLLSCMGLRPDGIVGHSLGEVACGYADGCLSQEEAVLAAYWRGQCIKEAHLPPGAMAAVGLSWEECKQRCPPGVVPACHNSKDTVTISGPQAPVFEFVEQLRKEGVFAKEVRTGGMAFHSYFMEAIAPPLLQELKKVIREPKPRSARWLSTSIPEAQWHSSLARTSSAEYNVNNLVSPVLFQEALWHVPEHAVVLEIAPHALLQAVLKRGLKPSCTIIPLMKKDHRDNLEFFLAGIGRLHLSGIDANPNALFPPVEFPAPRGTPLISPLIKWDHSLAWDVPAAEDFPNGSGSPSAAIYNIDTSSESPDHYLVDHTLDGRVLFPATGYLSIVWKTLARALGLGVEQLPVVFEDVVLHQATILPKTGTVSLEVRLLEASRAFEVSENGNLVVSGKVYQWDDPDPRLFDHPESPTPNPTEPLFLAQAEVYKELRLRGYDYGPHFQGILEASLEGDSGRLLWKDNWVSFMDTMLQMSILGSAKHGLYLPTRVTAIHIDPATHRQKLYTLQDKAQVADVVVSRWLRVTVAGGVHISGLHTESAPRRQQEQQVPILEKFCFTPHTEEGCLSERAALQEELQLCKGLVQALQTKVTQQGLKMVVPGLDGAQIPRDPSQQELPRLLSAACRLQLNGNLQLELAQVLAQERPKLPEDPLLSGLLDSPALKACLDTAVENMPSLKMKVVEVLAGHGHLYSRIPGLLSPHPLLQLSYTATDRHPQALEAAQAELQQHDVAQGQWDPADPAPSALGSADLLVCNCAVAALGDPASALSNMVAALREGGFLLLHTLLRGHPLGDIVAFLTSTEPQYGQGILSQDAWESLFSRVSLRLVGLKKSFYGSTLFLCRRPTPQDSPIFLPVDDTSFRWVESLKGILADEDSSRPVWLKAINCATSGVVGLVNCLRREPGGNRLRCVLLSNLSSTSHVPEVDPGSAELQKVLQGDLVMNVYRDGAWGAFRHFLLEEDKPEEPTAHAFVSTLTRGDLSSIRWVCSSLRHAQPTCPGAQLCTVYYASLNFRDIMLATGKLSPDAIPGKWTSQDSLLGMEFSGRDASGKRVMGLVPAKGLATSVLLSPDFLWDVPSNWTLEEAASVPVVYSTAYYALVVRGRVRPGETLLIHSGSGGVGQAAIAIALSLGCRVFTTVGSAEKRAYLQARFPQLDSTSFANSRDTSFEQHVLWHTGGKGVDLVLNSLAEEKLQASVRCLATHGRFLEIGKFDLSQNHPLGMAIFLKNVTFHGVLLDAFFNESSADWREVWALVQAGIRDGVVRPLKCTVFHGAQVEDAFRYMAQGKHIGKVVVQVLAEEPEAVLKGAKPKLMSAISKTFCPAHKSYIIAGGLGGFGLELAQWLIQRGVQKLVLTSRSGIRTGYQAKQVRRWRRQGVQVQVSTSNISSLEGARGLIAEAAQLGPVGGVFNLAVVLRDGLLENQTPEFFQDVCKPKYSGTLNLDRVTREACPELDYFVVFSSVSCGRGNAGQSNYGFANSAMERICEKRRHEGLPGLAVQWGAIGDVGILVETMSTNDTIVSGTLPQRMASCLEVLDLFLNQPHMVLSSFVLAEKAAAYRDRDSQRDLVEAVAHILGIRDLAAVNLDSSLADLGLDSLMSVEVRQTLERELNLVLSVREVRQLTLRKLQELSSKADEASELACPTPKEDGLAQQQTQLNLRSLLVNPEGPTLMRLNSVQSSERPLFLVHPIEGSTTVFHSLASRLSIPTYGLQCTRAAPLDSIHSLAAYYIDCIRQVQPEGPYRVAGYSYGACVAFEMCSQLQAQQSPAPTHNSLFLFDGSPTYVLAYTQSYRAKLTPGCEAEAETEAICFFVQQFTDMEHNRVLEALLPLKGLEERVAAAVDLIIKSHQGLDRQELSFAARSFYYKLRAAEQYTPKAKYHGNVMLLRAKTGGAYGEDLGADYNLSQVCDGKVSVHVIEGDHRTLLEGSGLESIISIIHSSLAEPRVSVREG
protocol.summary: Biochemical activity testing of human fatty acid synthase FASN (NADPH fluorescence intensity assay)
applied.conditions: NADPH fluorescence decrease (ex 340 nm / em 460 nm), 30 minutes at room temperature, read-out: IC50 FASN (enzyme assay)

// known answers, use as guide
- compound: "CCCC1(NC(=O)[C@H]2CC[C@@H](N(C)C(=O)c3ccc(-c4nc5ccccc5o4)cc3)C2)CC1 [Compound A73]"
  readout: "IC50"
  endpoint.result: "300 to 3000 nM"
- compound: "CCNC(=O)[C@H]1CC[C@@H](N(C)C(=O)c2ccc(-c3cn4ccc(C#N)cc4n3)cc2)C1 [Compound A87]"
  readout: "IC50"
  endpoint.result: "300 to 3000 nM"

**Query** // IC50 lookup, key: CN(C(=O)c1ccc(-c2nc3ccccc3o2)cc1)[C@@H]1CC[C@H](C(=O)NCCO)C1 [Compound A106]
**Result** < 300 nM

**Query** Can you look up the measured IC50 of CN(C(=O)c1ccc(-c2nc3ccccc3o2)cc1)[C@@H]1CC[C@H](C(=O)NC(C)(C)CO)C1 [Compound A99] for me?
**Result** 300 to 3000 nM
